- System: DU-145 prostate
- EXPERIMENT_SUMMARY: NCI-60 one-dose screen, 48 h (100 = growth as untreated, 0 = no growth, -100 = all killed)
- EXPERIMENTAL_PARAMETERS: 10 µM unless noted
The panel holds about 83,000 compounds, 20% with a hit somewhere; the sample as a whole holds those more often. The source made the active and inactive calls. How the source made its calls: active means growth percent below 10; inactive means the rest.
READOUT_TYPE: growth

> print(dat)
                                    molecule              test.value
 1     Nc1ccc(Nc2nccc(-c3ccc4ccccc4c3)n2)cc1        67.4% (inactive)
 2  COC(=O)[C@@H]1CC[C@]2(C)[C@H](CC[C@@H]3O[C@@]32C)[C@@]1(C)CC(=O)c1ccoc1         112% (inactive)
 3  COc1cc(-c2nc3ccccc3s2)ccc1NC(=O)COc1ccc(Cl)cc1        82.1% (inactive)
 4  Nc1cccc(-c2nc3sccn3c2-c2ccnc(NCCCNS(=O)(=O)c3ccc(C(F)(F)F)cc3)n2)c1        13.5% (inactive)
 5           O=C(Nc1ccc(F)cc1)Nc1ccc(CCO)cc1         111% (inactive)
 6  Brc1cccc(-c2cc(-c3ccc4c(c3)OCCO4)[nH]n2)c1  21% [25 µM] (inactive)
 7  CNc1nc(C)c(-c2nc(Nc3cccc(S(N)(=O)=O)c3)ncc2F)s1        10.9% (inactive)
 8  CCOC(=O)c1c2c(n3ccc(NC(=O)CCN4CCOCC4)cc13)C(=O)c1ncccc1C2=O        45.8% (inactive)
 9  CCN(CC)C12CCCCC1(C)C(C#N)(C#N)C(C#N)=C(N)O2 (stereo not given)         107% (inactive)
10  Cc1cc2c(cc1C)NC1=C(N2)OC(c2c3ccccc3cc3ccccc23)C1=O (stereo not given)        16.7% (inactive)

====

- Test system: HS 578T breast
- EXPERIMENT_SUMMARY: NCI-60 one-dose screen, 48 h (100 = growth as untreated, 0 = no growth, -100 = all killed)
- EXPERIMENTAL_PARAMETERS: 10 µM unless noted
Compounds without any hit were thinned out: in the full panel of roughly 83,000, 20% have a hit.
Reported growth values are given for each entry in this list.
READOUT_TYPE: growth (%)

COMPOUND	READOUT_TYPE	TEST_VALUE
CCCCCCCCCCCCCC(=O)C(C)N (stereo not given)	growth	70.6
O=C1Nc2ccccc2C12CC(c1ccccc1)=NN2 (stereo not given)	growth	87.9
Cc1ccc(SCN2CCN(c3cccc(Cl)c3)CC2)cc1	growth	111
CC[C@@H](C)OC(=O)c1nn(C(C)=O)c2ccccc12	growth	106
CCCCCCCCSC1=CC(=O)C(OC)=C(OC)C1=O	growth	63
CCCCCCCCCCCCCCCC(=O)OCC1OC(n2cnc3c(=S)nc(N)[nH]c32)C(OC(=O)CCCCCCCCCCCCCCC)C1OC(=O)CCCCCCCCCCCCCCC (stereo not given)	growth	119
CC(=O)O[C@H]1CC[C@]2(C)[C@H]3CC[C@@H]4[C@H]5[C@H](C(C)C)CC[C@]5(C(=O)OCC(CO)(CO)N=C(N)N)CC[C@@]4(C)[C@]3(C)CC[C@H]2C1(C)C	growth	93.7
CC[C@H](Nc1cc(C)nc(N)n1)c1nc2cccc(NCc3ccc(C(=O)NO)cc3)c2c(=O)n1-c1ccccc1	growth	32.1
CCN(CC)CCC(=O)c1ccc(OC)c2ccccc12	growth	95.9
CN1CCN(Cc2ccc(NC(=O)c3cncc(C#Cc4cncc5nccnc45)c3)cc2C(F)(F)F)CC1	growth	39.6

====

Collected growth values appear next to each entry.
- Test system: OVCAR-4 ovarian
- EXPERIMENT_SUMMARY: NCI-60 one-dose screen, 48 h (100 = growth as untreated, 0 = no growth, -100 = all killed)
- EXPERIMENTAL_PARAMETERS: 10 µM unless noted
- Protocol: Growth inhibition of the OVCAR-4 human tumor cell line is measured as a screen for anti-cancer activity. Cells are grown in 96 well plates and exposed to the test compound for 48 hours. Compounds are tested at a single concentration, which is 10^-5 M for most compounds. The reported endpoint is percent growth (GI% or GIPRCNT), where numbers from 0 - 100% represent growth inhibition, and numbers from -100% - 0 represent cell death. For example, a value of 40 represents 60% growth inhibition. […]
This is part of a sample that, as a whole, favours compounds with a hit. Of some 83,000 tested, about 20% had one in any assay.
READOUT_TYPE: growth (%)

> print(dat)
                                    molecule    tested.target  test.value
 1  O=C1/C(=C\c2cn(C(=O)c3ccc(Cl)cc3)c3ccccc23)c2ccccc2N1c1c(Cl)cccc1Cl  OVCAR-4 ovarian        99.5
 2               NC(N)=Nc1ccc(S(=O)(=O)O)cc1  OVCAR-4 ovarian        95.5
 3  O=C(O)C(O)C(O)C(=O)O.[NH-]C1CCCCC1[NH-].[Pt+2] (configuration not stated)  OVCAR-4 ovarian         106
 4  CCC(c1ccccc1)C(CC)c1ccc(O)c(O)c1 (configuration not stated)  OVCAR-4 ovarian        82.4
 5            O=c1cc(-c2ccccc2)[nH]c2ccccc12  OVCAR-4 ovarian        64.5
 6              O=C(O)c1cccc2c1-c1ccccc1C2=O  OVCAR-4 ovarian         105
 7  CCOC(=O)c1cnc2ccc(Br)cc2c1Nc1cccc(S(=O)(=O)NC)c1  OVCAR-4 ovarian        82.4
 8  O=C(O)c1ccc2c(c1Sc1ccccc1)C(=O)c1ccccc1C2=O  OVCAR-4 ovarian        92.9
 9  COc1nc2c(cc1S(=O)(=O)c1ccccc1)CCc1c-2cnn1Cc1ccccc1  OVCAR-4 ovarian        35.2
10  Cc1ccc2cnc(N)c(C#Cc3cncc(C(=O)Nc4ccc(CN5CCN(C)CC5)c(C(F)(F)F)c4)c3)c2c1  OVCAR-4 ovarian         -88
11  c1ccc(-c2nc(N3CCOCC3)c3c4c(sc3n2)CCCCC4)nc1  OVCAR-4 ovarian          51
12  O=C1C[C@H](Sc2nc(-c3ccc(F)cc3)cc(C(F)(F)F)n2)[C@H]2CO[C@@H]1O2  OVCAR-4 ovarian         108
13            CCOC(=O)C(=Cc1ccccc1F)C(=O)OCC  OVCAR-4 ovarian          97
14  Nc1nc2c(c3ncccc13)C(c1ccc(Cl)c(Cl)c1)Cc1ncccc1-2 (configuration not stated)  OVCAR-4 ovarian        67.6
15  O=S(=O)(Nc1ccc(F)c(Cl)c1)c1ccc(-c2cnc(C3CC3)o2)cc1  OVCAR-4 ovarian        39.1
16           c1ccc2c(Nc3cccc4ccccc34)cccc2c1  OVCAR-4 ovarian          86
17  COc1ccc(C2Nc3ccccc3-n3cccc32)cc1 (configuration not stated)  OVCAR-4 ovarian        93.6
18  COc1ccc(CN(c2ccc(C)cc2)C2OC(=O)c3ccccc32)cc1OC (configuration not stated)  OVCAR-4 ovarian         103
19     Nc1ccc(Nc2nccc(-c3ccc4ccccc4c3)n2)cc1  OVCAR-4 ovarian        56.4
20  COc1cc2c(=O)n(CC3CCCCC3)c3c4cc[nH]c4ncc3c2cc1OC  OVCAR-4 ovarian        19.3
21  COc1cnc2c(c1)C(=O)c1c-2n(CCCBr)c(=O)c2cc([N+](=O)[O-])ccc12  OVCAR-4 ovarian        5.15
22  COc1cc(C2CC(=O)c3c(C)nn(-c4nc5ccccc5[nH]4)c3C2)cc(OC)c1OC (configuration not stated)  OVCAR-4 ovarian       -35.4

====

- Tested on: IGROV1 ovarian
- EXPERIMENT_SUMMARY: NCI-60 one-dose screen, 48 h (100 = growth as untreated, 0 = no growth, -100 = all killed)
- EXPERIMENTAL_PARAMETERS: 10 µM unless noted
Compounds without any hit were thinned out: in the full panel of roughly 83,000, 20% have a hit.
Please use y whenever growth is not below 50%, and n whenever it is.

> print(dat)
                                    compound  class.name
 1  NS(=O)(=O)c1ccc(-n2ncc3c(=O)[nH]c(CN4CCN(c5cc6c(cc5F)c(=O)c(C(=O)O)cn6C5CC5)CC4)nc32)cc1           y
 2  O=C1c2c[n+](Cc3ccccc3)ccc2-c2nc3ccccc3c3ccnc1c23           n
 3  CC(C)[C@H]1COC(=O)N1[C@@H]1C(=O)N([C@@H](CCC(=O)N2CCN(C3CCCC3)CC2)C(=O)N[C@@H]2CCCc3ccccc32)[C@@H]1/C=C/c1cccc(Br)c1           n
 4  O=C(NC(Cc1ccccc1)C(=O)CCl)OCc1ccccc1 (centres undefined)           y
 5  COc1ccc(C(=O)c2sc3nc4c(c(C(F)(F)F)c3c2N)CN(C(C)=O)CC4)cc1OC           y
 6  COc1cc(-c2cc(-c3nc4ccc(Cl)cc4[nH]3)[nH]n2)cc(OC)c1OC           n
 7  CCOC(=O)c1c2c(n3ccc(NC(=O)CCN4CCOCC4)cc13)C(=O)c1ncccc1C2=O           n
 8  O=C([C@@H](COCc1ccccc1)N1C(=O)[C@@H](N2C(=O)OC[C@@H]2c2ccccc2)[C@H]1/C=C/c1ccccc1)N1CCC(CCN2CCCCC2)CC1           y
 9  CCOc1ccc(Nc2nc(-c3c(C)nc4ncccn34)cs2)cc1           n
10  COc1ccc(C(=O)c2sc3nc(-c4ccccc4OC)ccc3c2N)cc1OC           y
11           c1ccc2c(Nc3cccc4ccccc34)cccc2c1           y
12  CC(=O)Nc1ccc2c(c1)c(NC(C)=O)nn2C(=O)Nc1ccc(Cc2ccccc2)cc1           y
13               OCCNCCNc1c2ccccc2nc2ccccc12           y
14  Cc1ccc2cnc(N)c(C#Cc3cncc(C(=O)Nc4ccc(CN5CCN(C)CC5)c(C(F)(F)F)c4)c3)c2c1           n
15  C=C1CCC2C3(C)COC(C)(C)OC3CCC2(C)C1C/C=C1/C(=O)OCC1OC(C)=O (centres undefined)           y
16  O=C(/C=C/c1ccc(Cl)cc1)c1ccc(O)c(CN2CCN(c3cc4c(cc3F)c(=O)c(C(=O)O)cn4C3CC3)CC2)c1           y
17         CCN(CC)CC(C)(C)C(=O)/C=C/c1ccccc1           y
18  COc1ccc(C2c3ccc4ccccc4c3Oc3ncnc(N)c32)cc1 (centres undefined)           y
